Kindly state protein stability index for each of the entries shown.
tested on: Saccharomyces cerevisiae; test: protein stability index of tFT-peptide fusion in wild type (PSI (0-1 scale)); higher = more stable (slower turnover); conditions: genetic background: wild type
Provide a numeric answer; units are not to be included.

## Input For the sequence PSLAASFRRVVG , what protein stability index is on record?
## Output 0.665

## Input For the sequence WSLAASFWRVVG , what protein stability index is on record?
## Output 0.116

## Input For the sequence FSMRWTFRYWVL , what protein stability index is on record?
## Output 0.0913

## Input For the sequence AITLPMCALLLR , what protein stability index is on record?
## Output 0.149

## Input For the sequence FTSCGYKFRTNN , what protein stability index is on record?
## Output 0.207

## Input For the sequence KKHKKGQDQKIN , what protein stability index is on record?
## Output 0.616

## Input For the sequence RVTRLDAVYFRI , what protein stability index is on record?
## Output 0.442

## Input For the sequence PLVSLPILLFFR , what protein stability index is on record?
## Output 0.138

## Input For the sequence KKHKKGQKQKINH , what protein stability index is on record?
## Output 0.653

## Input For the sequence CLVRLPILLFFR , what protein stability index is on record?
## Output 0.0563

## Input For the sequence LVRYLSCVACIN , what protein stability index is on record?
## Output 0.0691

## Input For the sequence RLIQTLPVQFLN , what protein stability index is on record?
## Output 0.0873

## Input For the sequence LKILHQKMNHQN , what protein stability index is on record?
## Output 0.293

## Input For the sequence LKILRQKSNHQN , what protein stability index is on record?
## Output 0.581

## Input For the sequence CLVSLPILTFFR , what protein stability index is on record?
## Output 0.523

## Input For the sequence DSMRWTFRYWVN , what protein stability index is on record?
## Output 0.0763

## Input For the sequence GLYMCSVGCWFRN , what protein stability index is on record?
## Output 0.286

## Input For the sequence WLYMCSVGCWFR , what protein stability index is on record?
## Output 0.302

## Input For the sequence CLVSIPILLFFR , what protein stability index is on record?
## Output 0.057

## Input For the sequence PSLAASFWRVWG , what protein stability index is on record?
## Output 0.38

## Input For the sequence PSLAASFWRPVG , what protein stability index is on record?
## Output 0.656

## Input For the sequence GLYMCSVYCWFR , what protein stability index is on record?
## Output 0.255

## Input For the sequence CLVSLPILLRFR , what protein stability index is on record?
## Output 0.153

## Input For the sequence CLVSLPNLLFFR , what protein stability index is on record?
## Output 0.11

## Input For the sequence LLVSLPILLFFR , what protein stability index is on record?
## Output 0.0951

## Input For the sequence KKYKKGQKQKIN , what protein stability index is on record?
## Output 0.0672

## Input For the sequence PSLAWSFWRVVG , what protein stability index is on record?
## Output 0.0943

## Input For the sequence PDKRNHLIKLLNW , what protein stability index is on record?
## Output 0.571

## Input For the sequence EKILRQKMNHQN , what protein stability index is on record?
## Output 0.137

## Input For the sequence VRGAVGGWRLMG , what protein stability index is on record?
## Output 0.177

## Input For the sequence AITLPMCPLTLR , what protein stability index is on record?
## Output 0.363

## Input For the sequence QKHKKGQKQKIN , what protein stability index is on record?
## Output 0.0918

## Input For the sequence ARWCVGLWRGAS , what protein stability index is on record?
## Output 0.357

## Input For the sequence LKIERQKMNHQN , what protein stability index is on record?
## Output 0.333

## Input For the sequence LVVYMSCVACIN , what protein stability index is on record?
## Output 0.0151

## Input For the sequence CLVSCPILLFFR , what protein stability index is on record?
## Output 0.0926

## Input For the sequence AITLPMCQLLLR , what protein stability index is on record?
## Output 0.174

## Input For the sequence GLYMCPVGCWFR , what protein stability index is on record?
## Output 0.26

## Input For the sequence QLYMCSVGCWFR , what protein stability index is on record?
## Output 0.368

## Input For the sequence RSLRVLYPLYFR , what protein stability index is on record?
## Output 0.279

## Input For the sequence FSMRWTFRYTVN , what protein stability index is on record?
## Output 0.0631

====

test system: Saccharomyces cerevisiae; assay: protein stability index of tFT-peptide fusion in deletion strain of DAS1 (PSI (0-1 scale)); higher = more stable (slower turnover)
Kindly state protein stability index for each of the entries shown.
Provide a numeric answer; units are not to be included.

## Input For the sequence PSLAASFWRVWG , what protein stability index is on record?
## Output 0.696

## Input For the sequence VRGAVGGWRLWG , what protein stability index is on record?
## Output 0.717

## Input For the sequence PTKRNHLIKLLN , what protein stability index is on record?
## Output 0.582

## Input For the sequence VRPAVGGWRLVG , what protein stability index is on record?
## Output 0.68

## Input For the sequence ARHRVGLWRGAS , what protein stability index is on record?
## Output 0.689

## Input For the sequence PDKRNHLIKLNN , what protein stability index is on record?
## Output 0.598

## Input For the sequence RLIQPLSVQFLN , what protein stability index is on record?
## Output 0.594

## Input For the sequence RLILPLPVQFLN , what protein stability index is on record?
## Output 0.589

## Input For the sequence PSPAASFWRVVG , what protein stability index is on record?
## Output 0.69

## Input For the sequence PVVYLSCVACIN , what protein stability index is on record?
## Output 0.0265

## Input For the sequence FSMRWDFRYWVN , what protein stability index is on record?
## Output 0.585

## Input For the sequence CTSFGYKFRTNN , what protein stability index is on record?
## Output 0.678

## Input For the sequence LVVYLECVACIN , what protein stability index is on record?
## Output 0.0239

## Input For the sequence LVWYLSCVACIN , what protein stability index is on record?
## Output 0.0212

## Input For the sequence DRGAVGGWRLVG , what protein stability index is on record?
## Output 0.655

## Input For the sequence KRWRVGLWRGAS , what protein stability index is on record?
## Output 0.681

## Input For the sequence PDKYNHLIKLLN , what protein stability index is on record?
## Output 0.59

## Input For the sequence LVVYLSCVACINS , what protein stability index is on record?
## Output 0.0599

## Input For the sequence KKYKKGQKQKIN , what protein stability index is on record?
## Output 0.613

====

tested on: Saccharomyces cerevisiae; experiment: protein stability index of tFT-peptide fusion (C-terminal peptide) (PSI (0-1 scale)); higher = more stable (slower turnover); settings: genetic background: wild type; temperature: 30 C
Label rule, in plain words: protein stability index of 0.7 and up is true, under 0.7 is false.

## Input Item PRTSQVNRFFRV with protein stability index of 0.7 or above?
## Output true

## Input Item LILRPLPPPLPP with protein stability index of 0.7 or above?
## Output false

## Input Item DPFFPPYTPSPS with protein stability index of 0.7 or above?
## Output true

## Input Item PISAGGGVVWVE with protein stability index of 0.7 or above?
## Output false

## Input Item PAPPPPLLPRSL with protein stability index of 0.7 or above?
## Output true

## Input Item ARLPCVVFLLDE with protein stability index of 0.7 or above?
## Output false

## Input Item SHPPATMRAASV with protein stability index of 0.7 or above?
## Output false

## Input Item KLAHVKIKKTGK with protein stability index of 0.7 or above?
## Output false

## Input Item AWAVGPTICRRG with protein stability index of 0.7 or above?
## Output true

## Input Item AHGRFTISLAGL with protein stability index of 0.7 or above?
## Output true

## Input Item EGKKKKKGNRPK with protein stability index of 0.7 or above?
## Output false

## Input Item VALSILCVFFFF with protein stability index of 0.7 or above?
## Output false

## Input Item SVYGIASRAQLL with protein stability index of 0.7 or above?
## Output false

## Input Item LPPPAPSPAPPH with protein stability index of 0.7 or above?
## Output false

## Input Item GGGGGGVECRVG with protein stability index of 0.7 or above?
## Output false

## Input Item PSHSRSRPPPYL with protein stability index of 0.7 or above?
## Output true

## Input Item AFFFCVVVLFSF with protein stability index of 0.7 or above?
## Output false

## Input Item GGGERTAGVGQT with protein stability index of 0.7 or above?
## Output true

## Input Item GTRGLDTPPGRD with protein stability index of 0.7 or above?
## Output false

## Input Item KKGSSKKKKPVE with protein stability index of 0.7 or above?
## Output false

## Input Item EKKEGEREKQED with protein stability index of 0.7 or above?
## Output true

## Input Item GCGRLWAGIGRR with protein stability index of 0.7 or above?
## Output false

## Input Item EENGAGVSVGKL with protein stability index of 0.7 or above?
## Output false

## Input Item LLPPPPVPTPDR with protein stability index of 0.7 or above?
## Output false

## Input Item STPVEATQDVAR with protein stability index of 0.7 or above?
## Output true

## Input Item KGSWTLGDGLVW with protein stability index of 0.7 or above?
## Output false

## Input Item GEALVWGHGRLS with protein stability index of 0.7 or above?
## Output true

## Input Item KSEMAIIEKKEN with protein stability index of 0.7 or above?
## Output false

## Input Item PLPLPPPFILPT with protein stability index of 0.7 or above?
## Output false

## Input Item LPVRLPVSGSSS with protein stability index of 0.7 or above?
## Output true

## Input Item WGLIASGSIVIV with protein stability index of 0.7 or above?
## Output false
